Tested on: Jurkat
test-name: Cytotoxicity against human Jurkat cells assessed as cell viability at 10 uM after 72 hrs by trypan blue staining assay
experimental-readout: viability at 10 µM (%)
Provide the reading as a plain figure in %.

Example cases with answers are listed next.
[[record]]
compound = "COc1ccc(/C=C/C(=O)c2ccc3c(c2O)OCO3)cc1"
recorded_measurement = 80.6

[[record]]
compound = "COc1ccccc1-c1cc(=O)c2ccc3c(c2o1)OCO3"
recorded_measurement = 91.6

[[record]]
compound = "COc1ccc(C2CC(=O)c3ccc4c(c3O2)OCO4)cc1 (stereo unspecified)"
recorded_measurement = 88.2


Request the reported viability at 10 µM associated with `COc1ccc(-c2cc(=O)c3ccc4c(c3o2)OCO4)cc1` 81.2

Also COc1ccc(C2CC(=O)c3ccc4c(c3O2)OCO4)cc1OC (stereo unspecified) , if possible. 74.9

Also `COc1ccc(/C=C/C(=O)c2ccc3c(c2O)OCO3)cc1OC` , if possible. 77.5

====

System: K562
test-name: Cytotoxicity against human K562 cells assessed as reduction in cell viability after 72 hrs by CellTiter-Glo luminescent cell viability assay
Assay type: functional, cell-based
test-context: K562, 72 h
experimental-readout: IC50 (µM)
Provide the reading as a plain figure in µM.

Request the reported IC50 associated with `COc1ccccc1/C=C/C(=O)c1ccc2c(c1O)OCO2` 42.3

====

test-name: Cytotoxicity against human U937 cells assessed as cell viability at 10 uM after 72 hrs by trypan blue staining assay
test-context: U-937, 72 h
Mark yes (1) for viability at 10 µM under 70%, no (0) if at or over.

Example cases with answers are listed next.
[[record]]
compound = "COc1ccccc1C1CC(=O)c2ccc3c(c2O1)OCO3 (stereo unspecified)"
qualitative_label = "no (0)"

[[record]]
compound = "COc1cc(/C=C/C(=O)c2ccc3c(c2O)OCO3)cc(OC)c1OC"
qualitative_label = "yes (1)"


is_below(viability at 10 µM, 70%) for `COc1ccccc1-c1cc(=O)c2ccc3c(c2o1)OCO3` ? no (0)

Also `COc1ccccc1/C=C/C(=O)c1ccc2c(c1O)OCO2` , if possible. yes (1)

Also `COc1ccc(/C=C/C(=O)c2ccc3c(c2O)OCO3)cc1` , if possible. no (0)

====

Test system: Jurkat
test-name: Cytotoxicity against human Jurkat cells assessed as cell viability at 10 uM after 72 hrs by trypan blue staining assay
experimental-readout: viability at 10 µM
Entry format: amount then unit.

Example cases with answers are listed next.
[[record]]
molecule = "COc1cc(/C=C/C(=O)c2ccc3c(c2O)OCO3)cc(OC)c1OC"
recorded_measurement = "56.1%"

[[record]]
molecule = "COc1cc(-c2cc(=O)c3ccc4c(c3o2)OCO4)cc(OC)c1OC"
recorded_measurement = "76%"

[[record]]
molecule = "COc1ccccc1C1CC(=O)c2ccc3c(c2O1)OCO3 (stereo unspecified)"
recorded_measurement = "83.2%"

[[record]]
molecule = "COc1ccccc1/C=C/C(=O)c1ccc2c(c1O)OCO2"
recorded_measurement = "59%"

[[record]]
molecule = "COc1ccc(-c2cc(=O)c3ccc4c(c3o2)OCO4)cc1OC"
recorded_measurement = "87.9%"


Request the reported viability at 10 µM associated with COc1cc(C2CC(=O)c3ccc4c(c3O2)OCO4)cc(OC)c1OC (stereo unspecified) 69.7%
